Values compiled from patent US6960574B2.

Test system: receptor labeled by the radioiodinated analogue of 1 (4, [125I]-YLFQPQRF-NH2); neuropeptide FF receptor
experiment description: Competitive radioligand binding against 4 ([125I]Y8F-amide)
condition description: mixture-based positional scanning; difference from averaged radioligand displacement of whole library (0); about 80 a.u. = 10-fold change in Ki
Peptide text beside a SMILES is read from it. * marks the point of attachment. Dansyl = CN(C)c1cccc2c(S(=O)(=O)*)cccc12
outcome measure: Relative Binding Index (RBI) (a.u.)

CSCC[C@H](NS(=O)(=O)c1cccc2c(N(C)C)cccc12)C(=O)N[C@H](C(=O)N[C@@H](CCCNC(=N)N)C(N)=O)C(C)C [Dansyl-MVR-amide] (Dansyl-Met-Val-Arg-NH2)    −49
CC(C)C[C@H](NC(=O)CNS(=O)(=O)c1cccc2c(N(C)C)cccc12)C(=O)N[C@@H](CCCNC(=N)N)C(N)=O [Dansyl-GLR-amide] (Dansyl-Gly-Leu-Arg-NH2)    17
CN(C)c1cccc2c(S(=O)(=O)N[C@@H](Cc3c[nH]cn3)C(=O)N[C@@H](CC(N)=O)C(=O)N[C@@H](CCCNC(=N)N)C(N)=O)cccc12 [Dansyl-HNR-amide] (Dansyl-His-Asn-Arg-NH2)    18
CN(C)c1cccc2c(S(=O)(=O)N[C@@H](CC(N)=O)C(=O)N[C@@H](CCCNC(=N)N)C(=O)N[C@@H](CCCNC(=N)N)C(N)=O)cccc12 [Dansyl-NRR-amide] (Dansyl-Asn-Arg-Arg-NH2)    11
CN(C)c1cccc2c(S(=O)(=O)NCC(=O)N[C@@H](CC(=O)O)C(=O)N[C@@H](CCCNC(=N)N)C(N)=O)cccc12 [Dansyl-GDR-amide] (Dansyl-Gly-Asp-Arg-NH2)    7

a: CC(C)C[C@H](NC(=O)[C@H](Cc1ccc(O)cc1)NS(=O)(=O)c1cccc2c(N(C)C)cccc12)C(=O)N[C@@H](CCCNC(=N)N)C(N)=O [Dansyl-YLR-amide] (Dansyl-Tyr-Leu-Arg-NH2)
b: C[C@@H](O)[C@H](NS(=O)(=O)c1cccc2c(N(C)C)cccc12)C(=O)NCC(=O)N[C@@H](CCCNC(=N)N)C(N)=O [Dansyl-TGR-amide] (Dansyl-Thr-Gly-Arg-NH2)
**Query** Of a and b , which carries the smaller reported Relative Binding Index (RBI) figure? Mark your selection by writing its label.
**Result** b

1: CN(C)c1cccc2c(S(=O)(=O)N[C@@H](CC(N)=O)C(=O)N[C@@H](CCC(N)=O)C(=O)N[C@@H](CCCNC(=N)N)C(N)=O)cccc12 [Dansyl-NQR-amide] (Dansyl-Asn-Gln-Arg-NH2)
2: C[C@@H](O)[C@H](NS(=O)(=O)c1cccc2c(N(C)C)cccc12)C(=O)N[C@@H](CC(N)=O)C(=O)N[C@@H](CCCNC(=N)N)C(N)=O [Dansyl-TNR-amide] (Dansyl-Thr-Asn-Arg-NH2)
3: CC[C@H](C)[C@H](NS(=O)(=O)c1cccc2c(N(C)C)cccc12)C(=O)N[C@@H](CCC(N)=O)C(=O)N[C@@H](CCCNC(=N)N)C(N)=O [Dansyl-IQR-amide] (Dansyl-Ile-Gln-Arg-NH2)
**Query** Parameters: sort_field (Relative Binding Index (RBI)), sort_dir (desc). State the ranking by listing the labels in the requested order.
**Result** 1, 3, 2

* * *

Tested on: receptor labeled by the radioiodinated analogue of 1 (4, [125I]-YLFQPQRF-NH2); neuropeptide FF receptor
experiment description: Competitive radioligand binding against 4 ([125I]Y8F-amide)
condition description: mixture-based positional scanning; difference from averaged radioligand displacement of whole library (0); about 80 a.u. = 10-fold change in Ki
Peptide text beside a SMILES is read from it. * marks the point of attachment. Dansyl = CN(C)c1cccc2c(S(=O)(=O)*)cccc12
outcome measure: Relative Binding Index (RBI) (a.u.)

These recorded examples may help you get a feel for the data.
CN(C)c1cccc2c(S(=O)(=O)N[C@@H](CCC(=O)O)C(=O)N[C@@H](CC(N)=O)C(=O)N[C@@H](CCCNC(=N)N)C(N)=O)cccc12 [Dansyl-ENR-amide] (Dansyl-Glu-Asn-Arg-NH2)    18
CC(C)C[C@H](NS(=O)(=O)c1cccc2c(N(C)C)cccc12)C(=O)N[C@@H](Cc1ccc(O)cc1)C(=O)N[C@@H](CCCNC(=N)N)C(N)=O [Dansyl-LYR-amide] (Dansyl-Leu-Tyr-Arg-NH2)    −33
CN(C)c1cccc2c(S(=O)(=O)N[C@@H](CCC(=O)O)C(=O)N[C@@H](Cc3cnc[nH]3)C(=O)N[C@@H](CCCNC(=N)N)C(N)=O)cccc12 [Dansyl-EHR-amide] (Dansyl-Glu-His-Arg-NH2)    11
C[C@H](NC(=O)CNS(=O)(=O)c1cccc2c(N(C)C)cccc12)C(=O)N[C@@H](CCCNC(=N)N)C(N)=O [Dansyl-GAR-amide] (Dansyl-Gly-Ala-Arg-NH2)    −24
CSCC[C@H](NC(=O)[C@H](Cc1c[nH]c2ccccc12)NS(=O)(=O)c1cccc2c(N(C)C)cccc12)C(=O)N[C@@H](CCCNC(=N)N)C(N)=O [Dansyl-WMR-amide] (Dansyl-Trp-Met-Arg-NH2)    9

A: CN(C)c1cccc2c(S(=O)(=O)N[C@@H](CC(N)=O)C(=O)N[C@@H](CCCCN)C(=O)N[C@@H](CCCNC(=N)N)C(N)=O)cccc12 [Dansyl-NKR-amide] (Dansyl-Asn-Lys-Arg-NH2)
B: CCC(C)C(NC(=O)C(Cc1c[nH]c2ccccc12)NS(=O)(=O)c1cccc2c(N(C)C)cccc12)C(=O)NC(CCCNC(=N)N)C(N)=O (stereo not drawn) [Dansyl-WIR-amide] (Dansyl-Trp-Ile-Arg-NH2; configuration not given here)
C: CSCC[C@H](NS(=O)(=O)c1cccc2c(N(C)C)cccc12)C(=O)NCC(=O)N[C@@H](CCCNC(=N)N)C(N)=O [Dansyl-MGR-amide] (Dansyl-Met-Gly-Arg-NH2)
D: CC[C@H](C)[C@H](NC(=O)[C@H](CC(C)C)NS(=O)(=O)c1cccc2c(N(C)C)cccc12)C(=O)N[C@@H](CCCNC(=N)N)C(N)=O [Dansyl-LIR-amide] (Dansyl-Leu-Ile-Arg-NH2)
E: CN(C)c1cccc2c(S(=O)(=O)N[C@@H](CCC(N)=O)C(=O)N[C@@H](CC(N)=O)C(=O)N[C@@H](CCCNC(=N)N)C(N)=O)cccc12 [Dansyl-QNR-amide] (Dansyl-Gln-Asn-Arg-NH2)
**Query** Arrange these 5 compounds in increasing order of Relative Binding Index (RBI). State the ranking by listing the labels in the requested order.
**Result** C, D, A, B, E

* * *

Test system: receptor labeled by the radioiodinated analogue of 1 (4, [125I]-YLFQPQRF-NH2); neuropeptide FF receptor
experiment description: Competitive radioligand binding against 4 ([125I]Y8F-amide)
condition description: mixture-based positional scanning; difference from averaged radioligand displacement of whole library (0); about 80 a.u. = 10-fold change in Ki
Square brackets hold non-standard residues; d marks the D form. Peptide text beside a SMILES is read from it. * marks the point of attachment. ξ: configuration not given here. Dansyl = CN(C)c1cccc2c(S(=O)(=O)*)cccc12; ξL = CC(C)CC(N)C(=O)O
outcome measure: Relative Binding Index (RBI) (a.u.)

CSCC[C@H](NS(=O)(=O)c1cccc2c(N(C)C)cccc12)C(=O)N[C@@H](CCCCN)C(=O)N[C@@H](CCCNC(=N)N)C(N)=O [Dansyl-MKR-amide] (Dansyl-Met-Lys-Arg-NH2)    −46
CC(C)CC(NC(=O)[C@H](CC(N)=O)NS(=O)(=O)c1cccc2c(N(C)C)cccc12)C(=O)N[C@@H](CCCNC(=N)N)C(N)=O (some centres unmarked) [Dansyl-NLR-amide] (Dansyl-Asn-[ξL]-Arg-NH2)    4
C[C@H](NS(=O)(=O)c1cccc2c(N(C)C)cccc12)C(=O)N[C@@H](CC(=O)O)C(=O)N[C@@H](CCCNC(=N)N)C(N)=O [Dansyl-ADR-amide] (Dansyl-Ala-Asp-Arg-NH2)    −6

I: CC(C)[C@H](NS(=O)(=O)c1cccc2c(N(C)C)cccc12)C(=O)N[C@@H](CC(=O)O)C(=O)N[C@@H](CCCNC(=N)N)C(N)=O [Dansyl-VDR-amide] (Dansyl-Val-Asp-Arg-NH2)
II: CC(C)C[C@H](NS(=O)(=O)c1cccc2c(N(C)C)cccc12)C(=O)N[C@@H](C)C(=O)N[C@@H](CCCNC(=N)N)C(N)=O [Dansyl-LAR-amide] (Dansyl-Leu-Ala-Arg-NH2)
**Query** Field: entry with larger Relative Binding Index (RBI) (options I / II ). Mark your selection by writing its label.
**Result** I
